- Tested on: MDA-MB-231
- Assay remarks: Antiproliferative activity against human MDA-MB-231 cells after 4 days
- Format: functional, cell-based
- Study conditions: MDA-MB-231, 96 h
Endpoint name: pIC50
pIC50 (log units): -log10 of the concentration in mol/L.

Look over these answered cases.
Compound | pIC50
COc1ccc(-c2[nH]c3ccc(C)cc3c2C=O)cc1 | 7.07
COc1ccc(-c2[nH]c3cc(Cl)c(C)cc3c2C=O)cc1 | 7.59
CCCCc1ccc(-c2[nH]c3ccc(CC)cc3c2C=O)cc1 | 6.52
CCCCCc1ccc2[nH]c(-c3ccc(OC)cc3)c(/C=N\C)c2c1 | 8.22
COc1ccc(-c2[nH]c3ccc(CC(C)C)cc3c2C=O)cc1 | 7.14
COc1ccc(-c2[nH]c3cc(Cl)ccc3c2C=O)cc1 | 7.57
COc1cccc(-c2[nH]c3cc(OC)ccc3c2C=O)c1 | 5.99
Cc1ccc(-c2[nH]c3cc(Cl)ccc3c2C=O)cc1 | 8.11
COc1ccc(-c2[nH]c3cc(F)ccc3c2C=O)cc1 | 7.23
CCCCc1ccc2[nH]c(-c3ccc(C(F)(F)F)cc3)c(C=O)c2c1 | 7.48

Item: COc1ccc(-c2[nH]c3ccc(F)cc3c2C=O)cc1 | System: MDA-MB-231 | pIC50: 6.27

Query CCCCCCc1ccc2[nH]c(-c3ccc(OC)cc3)c(C=O)c2c1 on MDA-MB-231; pIC50 returned: 8.13

The molecule CCCCc1ccc2[nH]c(-c3ccc(CC)cc3)c(C=O)c2c1 on MDA-MB-231: pIC50 was 7.57

Tested on MDA-MB-231, the item C/N=C\c1c(-c2ccc(OC)cc2)[nH]c2cc(OC)ccc12 showed pIC50 equal to 7.47

Considering COc1ccc2c(C=O)c(-c3ccc(OC)c(OC)c3)[nH]c2c1 , its pIC50 with MDA-MB-231 was recorded as 6.57

Summary: CCCCCCc1ccc2[nH]c(-c3ccc(C(F)(F)F)cc3)c(C=O)c2c1 , MDA-MB-231, pIC50 = 7.37

Entry CCCCc1ccc2[nH]c(-c3ccc(C(F)(F)F)cc3)c(/C=N\C)c2c1 , MDA-MB-231 data, pIC50 value: 7.49

Item CCCCc1ccc2[nH]c(-c3ccc(C)cc3)c(C=O)c2c1 ; assay system MDA-MB-231; pIC50 reported as 7.47
